Tested on: rodent lifetime carcinogenesis bioassay, tumor incidence TD50
Assay: carcinogenic potency in animals, long-term in vivo studies, CPDB compilation (AID 1745844)
Conditions: rat; strain Fischer 344; males; in drinking water; site: liver; lesion: cholangioadenoma/carcinoma; dosed 75 weeks; study length 125 weeks
endpoint: TD50 (mg/kg/day)

compound-structure-string | endpoint | measured-number
O=NN(CCO)CCO | TD50 | 38.6

----------
TD50 values, listed per item
System: rodent lifetime carcinogenesis bioassay, tumor incidence TD50
Test: carcinogenic potency in animals, long-term in vivo studies, CPDB compilation (AID 1745844)
Settings: rat; strain Fischer 344; males; in feed; site: forestomach; lesion: squamous-cell papilloma; dosed 103 weeks; study length 104 weeks

compound-structure-string | TD50, mg/kg/day
COc1ccccc1[N+](=O)[O-] | 543
Nc1cc(S(=O)(=O)[O-])cc2cc(S(=O)(=O)[O-])c(N=Nc3ccc(-c4ccc(N=Nc5c(S(=O)(=O)[O-])cc6cc(S(=O)(=O)[O-])cc(N)c6c5O)c(O)c4)cc3O)c(O)c12.[Cu].[Cu].[Na+].[Na+].[Na+].[Na+] | 3140

----------
System: rodent lifetime carcinogenesis bioassay, tumor incidence TD50
Assay: carcinogenic potency in animals, long-term in vivo studies, CPDB compilation (AID 1745844)
Conditions: rat; strain Fischer 344; males; in feed; site: liver; lesion: cholangiocarcinoma; dosed 76 weeks; study length 76 weeks
endpoint: TD50 (mg/kg/day)

compound-structure-string | endpoint | scale-unit | measured-number
O=[N+]([O-])OCC(CO[N+](=O)[O-])O[N+](=O)[O-] | TD50 | mg/kg/day | 509

----------
System: rodent lifetime carcinogenesis bioassay, tumor incidence TD50
Test: carcinogenic potency in animals, long-term in vivo studies, CPDB compilation (AID 1745844)
Conditions: rat; strain Sprague-Dawley; males; i.p.; site: all sites; lesion: leukemia; dosed 32 weeks; study length 79 weeks

compound-structure-string | tested-target | TD50
S=P(N1CC1)(N1CC1)N1CC1 | rodent lifetime carcinogenesis bioassay, tumor incidence TD50 | 0.29 mg/kg/day

----------
System: rodent lifetime carcinogenesis bioassay, tumor incidence TD50
Test: carcinogenic potency in animals, long-term in vivo studies, CPDB compilation (AID 1745844)
Conditions: rat; strain Sprague-Dawley; males; inhaled; site: any site (literature study); lesion: benign tumor; dosed 52 weeks; study length 52 weeks
Calls of active or inactive are those of the source. No rule for the calls is given here.

compound-structure-string | tested-target | TD50
CC(C)[N+](=O)[O-] | rodent lifetime carcinogenesis bioassay, tumor incidence TD50 | 9.06 mg/kg/day (inactive)

----------
System: rodent lifetime carcinogenesis bioassay, tumor incidence TD50
Assay: carcinogenic potency in animals, long-term in vivo studies, CPDB compilation (AID 1745844)
Settings: rat; strain Fischer 344; males; i.p.; site: any site (literature study); lesion: one or several types; types not named; dosed 52 weeks; study length 52 weeks

compound | TD50
O=C1NC(O)CCN1[C@@H]1O[C@H](CO)[C@@H](O)[C@H]1O (stereo partly drawn) | 15.7 mg/kg/day
NC1=NCN([C@@H]2O[C@H](CO)[C@@H](O)[C@H]2O)C(=O)N1 | 20.7 mg/kg/day
Nc1ncn([C@@H]2O[C@H](CO)[C@@H](O)[C@H]2O)c(=O)n1 | 0.17 mg/kg/day

----------
Tested on: rodent lifetime carcinogenesis bioassay, tumor incidence TD50
Experiment: carcinogenic potency in animals, long-term in vivo studies, CPDB compilation (AID 1745844)
Conditions: mouse; strain Charles River CD1; males; in feed; site: lung; lesion: adenocarcinoma; dosed 105 weeks; study length 105 weeks
Activity calls are given as the source filed them. The rule behind the calls is not given here.
endpoint: TD50

compound-structure-string | endpoint | result
CC1=C(/C=C/C(C)=C/C=C/C(C)=C/C=C/C=C(C)/C=C/C=C(C)/C=C/C2=C(C)CCCC2(C)C)C(C)(C)CCC1 | TD50 | 26400 mg/kg/day (inactive)
